experiment: In vitro metabolism rate determination, human liver microsome (HLM) assay; format: in vitro ADME; conditions: human liver microsomes, substrate 1 μM; read-out: HLM (intrinsic clearance)
assay.endpoint: microsomal CLint at 1 μM

>>> reading("C[C@@H]1CN(C(=O)[C@@H]2CN(c3ccc(Cl)nn3)C[C@H]2c2ccc(F)cn2)C[C@H](C)[C@@]1(O)c1ccc(Cl)cc1 [Example 5]")
"< 7 µL/min/mg"
>>> reading("COc1ccc(C2CN(c3ccc(C#N)nn3)CC2C(=O)N2CC(C)C(O)(c3ccc(F)cc3)C(C)C2)cn1 (stereo not shown) [Example 16]")
"< 45.5 µL/min/mg"
>>> reading("C[C@@H]1CN(C(=O)[C@@H]2CN(c3ccc(C#N)nn3)C[C@H]2c2ccc(F)cn2)C[C@H](C)[C@@]1(O)c1ccc(F)cc1 [Example 34]")
"< 7 µL/min/mg"
>>> reading("CC1CN(C(=O)C2CN(c3ccc(=O)[nH]n3)CC2c2ccc(Cl)cn2)CC(C)C1(O)c1ccccc1 (stereo not shown) [Example 27]")
"51 µL/min/mg"

---

test: In vitro metabolism rate determination, rat liver microsome (RLM) assay; format: in vitro ADME; conditions: rat liver microsomes, substrate 1 μM; read-out: RLM (intrinsic clearance)
assay.endpoint: microsomal CLint at 1 μM (µL/min/mg)

>>> reading("C[C@@H]1CN(C(=O)[C@@H]2CN(c3ccc(Cl)nn3)C[C@H]2c2ccc(F)cn2)C[C@H](C)[C@@]1(O)c1ccc(Cl)cc1")
27
>>> reading("COc1ccc(C2CN(c3cccnn3)CC2C(=O)N2CC(C)C(O)(c3ccccc3)C(C)C2)cn1 (stereo not shown)")
88.5
>>> reading("COc1ccc(N2C[C@@H](C(=O)N3C[C@@H](C)[C@](O)(c4ccc(F)cc4)[C@@H](C)C3)[C@H](c3ccc(Cl)cn3)C2)nn1")
74
>>> reading("C[C@@H]1CN(C(=O)[C@@H]2CN(c3ccc(=O)n(C)n3)C[C@H]2c2ccc(Cl)cn2)C[C@H](C)[C@@]1(O)c1ccc(Cl)cn1")
42
>>> reading("CC1CN(C(=O)C2CN(c3ccc(=O)[nH]n3)CC2c2ccc(F)cn2)CC(C)C1(O)c1ccccc1 (stereo not shown)")
23
>>> reading("CC1CN(C(=O)C2CN(c3ccc(=O)n(C)n3)CC2c2ccc(F)cn2)CC(C)C1(O)c1ccccc1 (stereo not shown)")
58
>>> reading("CC1CN(C(=O)C2CN(c3ccc(=O)n(C)n3)CC2c2ccc(Cl)cn2)CC(C)C1(O)c1ccc(F)c(F)c1 (stereo not shown)")
21
>>> reading("C[C@@H]1CN(C(=O)[C@@H]2CN(c3ccc(=O)n(C)n3)C[C@H]2c2ccc(F)cn2)C[C@H](C)[C@@]1(O)c1ccc(Cl)cc1")
11
>>> reading("COc1ccc(C2(O)C(C)CN(C(=O)C3CN(c4ccc(=O)n(C)n4)CC3c3ccc(Cl)cn3)CC2C)cc1 (stereo not shown)")
51.5
>>> reading("C[C@@H]1CN(C(=O)[C@@H]2CN(c3ccc(=O)n(C)n3)C[C@H]2c2ccc(Cl)cn2)C[C@H](C)[C@@]1(O)c1ccccn1")
96
>>> reading("C[C@@H]1CN(C(=O)[C@@H]2CN(c3ccc(Cl)nn3)C[C@H]2c2ccc(F)cn2)C[C@H](C)[C@@]1(O)c1ccccc1")
92

---

Each record here notes measured inhibition at 3 μM.
molecular target: CYP3A4 (Homo sapiens, UniProt P08684); construct: utilizes human liver microsomes together with isoform-specific clinical drug probes; from tissue; host or cells: human liver microsomes; test: High density drug-drug interactions (DDI) 3 μM cocktail screen in human liver microsomes; format: in vitro ADME; conditions: 3 uM test compound, pooled human liver microsomes, probe midazolam 2 μM; read-out: % Inhibition of 3A4 metabolism at 3 uM
Sequence (P08684 whole entry, canonical isoform): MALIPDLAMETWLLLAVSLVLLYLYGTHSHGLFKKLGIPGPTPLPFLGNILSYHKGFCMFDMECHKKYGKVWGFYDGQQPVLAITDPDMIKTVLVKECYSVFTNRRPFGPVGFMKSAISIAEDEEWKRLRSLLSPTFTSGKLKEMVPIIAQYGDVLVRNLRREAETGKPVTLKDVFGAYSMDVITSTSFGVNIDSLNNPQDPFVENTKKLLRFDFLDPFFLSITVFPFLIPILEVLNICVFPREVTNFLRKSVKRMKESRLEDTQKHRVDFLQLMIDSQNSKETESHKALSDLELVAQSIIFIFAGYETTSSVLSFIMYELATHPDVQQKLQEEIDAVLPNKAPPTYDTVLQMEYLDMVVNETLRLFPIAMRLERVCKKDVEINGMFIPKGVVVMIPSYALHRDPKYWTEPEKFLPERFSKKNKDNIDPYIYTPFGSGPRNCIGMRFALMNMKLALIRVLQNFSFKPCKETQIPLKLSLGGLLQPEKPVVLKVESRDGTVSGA
assay.endpoint: inhibition at 3 μM (%)

>>> reading("CC1CN(C(=O)C2CN(c3ccc(=O)n(C)n3)CC2c2ccc(Cl)cn2)CC(C)C1(O)c1ccccc1 (centres unmarked)")
25
>>> reading("C[C@@H]1CN(C(=O)[C@@H]2CN(c3ccc(=O)n(C)n3)C[C@H]2c2ccc(F)cn2)C[C@H](C)[C@@]1(O)c1ccc(Cl)cc1")
19
>>> reading("CC1CN(C(=O)C2CN(c3cncc(F)c3)CC2c2ccc(Cl)cn2)CC(C)C1(O)C1CC1 (centres unmarked)")
87
>>> reading("COc1ccc(C2CN(c3ccc(C#N)nn3)CC2C(=O)N2CC(C)C(O)(c3ccc(F)cc3)C(C)C2)cn1 (centres unmarked)")
83
>>> reading("C[C@@H]1CN(C(=O)[C@@H]2CN(c3ccc(C#N)nn3)C[C@H]2c2ccc(F)cn2)C[C@H](C)[C@@]1(O)c1ccc(Cl)cc1")
31
>>> reading("C[C@@H]1CN(C(=O)[C@@H]2CN(c3ccc(=O)n(C)n3)C[C@H]2c2ccc(Cl)cn2)C[C@H](C)[C@@]1(O)C1CCCCC1")
35
>>> reading("COc1ccc([C@@H]2CN(c3ccc(=O)[nH]n3)C[C@H]2C(=O)N2C[C@@H](C)[C@](O)(c3ccc(Cl)cn3)[C@@H](C)C2)nc1")
52
>>> reading("C[C@@H]1CN(C(=O)[C@@H]2CN(c3ccc(C#N)nn3)C[C@H]2c2ccc(F)cn2)C[C@H](C)[C@@]1(O)c1ccc(F)cc1")
50
>>> reading("C[C@@H]1CN(C(=O)[C@@H]2CN(c3ccc(=O)n(C)n3)C[C@H]2c2ccc(Cl)cn2)C[C@H](C)[C@@]1(O)C1CC1")
34
>>> reading("C[C@@H]1CN(C(=O)[C@@H]2CN(c3ccc(=O)n(C)n3)C[C@H]2c2ccc(Cl)cn2)C[C@H](C)[C@@]1(O)c1ccc(Cl)cn1")
19
>>> reading("COc1ccc(C2CN(c3ccc(=O)[nH]n3)CC2C(=O)N2CC(C)C(O)(c3ccc(F)cc3)C(C)C2)nc1 (centres unmarked)")
59
>>> reading("C[C@@H]1CN(C(=O)[C@@H]2CN(c3ccc(=O)[nH]n3)C[C@H]2c2ccc(F)cn2)C[C@H](C)[C@@]1(O)c1ccc(Cl)cc1")
32
>>> reading("C[C@@H]1CN(C(=O)[C@@H]2CN(c3ccc(Cl)nn3)C[C@H]2c2ccc(F)cn2)C[C@H](C)[C@@]1(O)c1ccccc1")
46
>>> reading("C[C@@H]1CN(C(=O)[C@@H]2CN(c3ccc(=O)[nH]n3)C[C@H]2c2ccc(Cl)cn2)C[C@H](C)[C@@]1(O)c1ccccn1")
77
>>> reading("COc1ccc([C@@H]2CN(c3cncc(F)c3)C[C@H]2C(=O)N2C[C@@H](C)[C@](O)(c3ccc(F)cc3)[C@@H](C)C2)cn1")
6
>>> reading("COc1ccc(N2C[C@@H](C(=O)N3C[C@@H](C)[C@](O)(c4ccc(F)cc4)[C@@H](C)C3)[C@H](c3ccc(Cl)cn3)C2)nn1")
38
>>> reading("C[C@@H]1CN(C(=O)[C@@H]2CN(c3ccc(C#N)cn3)C[C@H]2c2ccc(Cl)cn2)C[C@H](C)[C@@]1(O)c1ccc(F)cc1")
54
>>> reading("CC1CN(C(=O)C2CN(c3ccc(=O)[nH]n3)CC2c2ccc(Cl)cn2)CC(C)C1(O)c1ccccc1 (centres unmarked)")
64
>>> reading("CC1CN(C(=O)C2CN(c3ccc(=O)[nH]n3)CC2c2ccc(F)cn2)CC(C)C1(O)c1ccccc1 (centres unmarked)")
45
>>> reading("C[C@@H]1CN(C(=O)[C@@H]2CN(c3ccc(Cl)nn3)C[C@H]2c2ccc(Cl)cn2)C[C@H](C)[C@@]1(O)c1ccc(F)cc1")
60
